measure: melting point

1) O=C(c1cc2ccccc2[nH]1)c1cc2cc(OCC3CCCCC3)ccc2[nH]1 : 185 °C (dec.)

Value of measured melting point for the entry CN1C(=O)C(Br)=C(c2c(CCCCc3cc4ccccc4[nH]3)[nH]c3ccccc23)C1=O : 165 °C (dec.)

Consider COc1ccc2c(c1)cc(C(OC)(c1ccccc1)c1cc3cc(OC)ccc3n1S(=O)(=O)c1ccccc1)n2S(=O)(=O)c1ccccc1 . Its measured melting point is 100 to 101 °C

For reference, reported melting point for O=C(c1cc2ccccc2[nH]1)c1cc2cc(OCCCCI)ccc2[nH]1 stands at 110 to 113 °C

Recorded result, COc1ccc2cc(C(=O)c3cc4ccccc4[nH]3)[nH]c2c1 , melting point: 184 to 186 °C

====

Items are presented alongside their recorded melting point.

Sample answers from the record:
1. COc1cccc2cc(C(O)c3cc4ccccc4n3S(=O)(=O)c3ccccc3)n(S(=O)(=O)c3ccccc3)c12 (stereo not drawn) [Example 12] : 148 to 150 °C
2. CN(C)CC(=O)Oc1ccc2[nH]c(C(=O)c3cc4ccccc4[nH]3)cc2c1 [Example 56] : 215 to 217 °C
3. O=C(c1cc2ccccc2[nH]1)c1cc2cc(OCCCCCI)ccc2[nH]1 [Example 50] : 127 to 130 °C
4. COc1ccc2c(c1)cc(Cc1cc3cccc(OC)c3n1S(=O)(=O)c1ccccc1)n2S(=O)(=O)c1ccccc1 [Example 73] : 168 to 170 °C
5. O=C1NC(=O)C(c2c(CCCCCCCCc3[nH]c4ccccc4c3C3=C(Br)C(=O)NC3=O)[nH]c3ccccc23)=C1Br [Example 115] : 180 °C (dec.)
6. CN1C(=O)C(Br)=C(c2c(CCc3[nH]c4ccccc4c3C3=C(Br)C(=O)N(C)C3=O)[nH]c3ccccc23)C1=O [Example 116] : 179 °C
7. COc1cccc2cc(C(=O)c3cc4ccccc4n3S(=O)(=O)c3ccccc3)n(S(=O)(=O)c3ccccc3)c12 [Example 29] : 129 to 130 °C
8. CN(C)CCn1c2c(c3ccccc31)C1=C(C(=O)N(COCc3ccccc3)C1=O)c1c([nH]c3ccccc13)C2 [Example 88] : 164 to 165 °C

Input CN1C(=O)C(Br)=C(c2c(CCCCc3[nH]c4ccccc4c3C3=C(Br)C(=O)N(C)C3=O)[nH]c3ccccc23)C1=O [Example 117] . Output melting point: 190 °C (dec.)

Lab note: measured melting point of COc1ccc2c(c1)cc(C(=O)c1cc3ccccc3n1S(=O)(=O)c1ccccc1)n2S(=O)(=O)c1ccccc1 [Example 17] was 205 °C

Lookup result for COc1ccc2[nH]c3c(c2c1)C1=C(C(=O)NC1=O)c1c([nH]c2ccccc12)C3 [Example 82] ; measured melting point: > 350 °C

Looking up CN(C)CCn1c2c(c3ccccc31)C1=C(C(=O)NC1=O)c1c([nH]c3ccccc13)C2 [Example 90] , I see its melting point listed as 213 to 214 °C

Notebook: O=C1NC(=O)C(c2c(CCCc3[nH]c4ccccc4c3C3=C(Br)C(=O)NC3=O)[nH]c3ccccc23)=C1Br [Example 113] , melting point read as > 350 °C

Noted for CN1C(=O)C(Br)=C(c2c(CCCCCCCCc3[nH]c4ccccc4c3C3=C(Br)C(=O)N(C)C3=O)[nH]c3ccccc23)C1=O [Example 118] : its melting point reads 185 °C (dec.)

Sure, the documented melting point for COc1ccc2[nH]c(C(=O)c3cc4ccccc4[nH]3)cc2c1 [Example 20] is 233 to 235 °C
